molecular target: T1, mouse Ig1,2 TrkA (recombinant D4-D5 domain of murine TrkA receptor) (mouse, UniProt Q3UFB7 193-413); test: SPR (Biacore X-100); scFv immobilised on CM5 chip, mouse Ig1,2 TrkA injected
T1 construct: also called mTrkA Ig1,2
T1 sequence (Q3UFB7 other isoform, or with tags, fused parts or gaps limits assumed): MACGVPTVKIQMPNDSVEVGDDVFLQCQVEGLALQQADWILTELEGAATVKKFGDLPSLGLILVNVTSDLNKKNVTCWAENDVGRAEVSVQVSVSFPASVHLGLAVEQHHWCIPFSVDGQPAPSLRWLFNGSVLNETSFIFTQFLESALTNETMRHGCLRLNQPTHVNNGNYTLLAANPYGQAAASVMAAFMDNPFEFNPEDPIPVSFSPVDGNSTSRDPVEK
READOUT: kon (M⁻¹ s⁻¹)
Write the answer as a number in M⁻¹ s⁻¹, unit excluded.

Record excerpt, results attached:
Reported kon ( anti-TrkA scFv CRB0082 (scFv, From hSPLINT_09 selection) scFv: SYVLTQPPSVSVAPGTTARLSCEATKIGSQRLHWYQQKPGQAPVMVISFDSDRPSGIPDRFSGSRSGNTATLTISGVEAGDEADYYCNSRDSSGYHLVFGGGTKLTVLSGGSTSGSGKPGSGEGSSGTQVQLQQSGPGLVKPSQTLSLTCAISGDSVSSFTVAWNWIRQSPSRGLERLGRTYRRSKDYAEYMRSRLTINADTSKNQLSLQLDSVTPDDTAVYYCARGQNSAFDLWGQRTMVTVSS ) = 2630

The binder identified as anti-TrkA scFv CRB0022 (scFv, From mSPLINT selection) scFv: DIVLTQSPALMSASPGEKVTMTCSASSSVSYMYWYQQKPRSSPKPWIYLTSNLASGVPARFSGSGSGTSYSLTISSMEAEDAATYYCQQWSSNPYTFGGRTRLEIKPSGGSTSGSGKPGSGEDSSGAQVQLQQSGAELVKPGASVELSCTASGFNIKDTYMHWVKQRPEQGLEWIGGIDPANGNTIYVPKFQGKATITADTSSNTAYLQLSSLTSEDTAVYYCARGGYDFDYAMDYWGQGTSVTVSS registered its kon at 9430

Others:
Form field kon, entry anti-TrkA scFv CRB0036 (scFv, From mSPLINT selection) scFv: DIVMTQAAPSVPVTPGESVSISCRSSKSLLHSSGITSLYWYLQRPGQSPQLPIYRMSSLASGVPDRFSVSGSGTAFTLRISRVEAEDVGVYYCMQHLEYPLTFGAGTKLELKRSGGSTSGSGKPGSGEGSSGTQVQLQQSGAELLKPGASVKISCKATGYTFSNYWIEWVKQRPGHGLEWIGEILPGSGSAHYSEKFKDKATFTADTSSNTAYMQLSSLTSEDSAVYFCTRSPPNPGYWGQGTSVTVSS : 6440
